Data credit: paper PMC9482650

Assign pKd to each entry below.
Target: T1, PTPN4, P29074
T1 sequence (P29074 512-599, limits assumed, looked up): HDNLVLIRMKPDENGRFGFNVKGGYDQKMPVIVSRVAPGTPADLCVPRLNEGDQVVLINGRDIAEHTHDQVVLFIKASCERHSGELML
Assay: holdup assay
Design: key: below the threshold = too weak to quantify, mostly under pKd 3.1 to 4
Conditions: plain residues with an end cap or a label only (N-terminal biotin on a linker: ttds)
Lab note: write the figure by itself, no unit.

Data point: KLVIKTETTV [RASSF6, Q6ZTQ3] ; pKd = 4.33

Data point: PSRDRKETSI [RALBP1, Q15311] ; pKd = 3.83

Data point: SGGKRKETLV [NET1, Q7Z628] ; pKd = 3.51

Data point: SSIDLWETAL [SLC15A5, A6NIM6] ; pKd = 4.84

Data point: SRSRRRETAL [HPV33-E6, P06427] ; pKd = 5.02
